Target: Cathepsin K (Oryctolagus cuniculus, UniProt P43236)
Sequence (P43236 115-329): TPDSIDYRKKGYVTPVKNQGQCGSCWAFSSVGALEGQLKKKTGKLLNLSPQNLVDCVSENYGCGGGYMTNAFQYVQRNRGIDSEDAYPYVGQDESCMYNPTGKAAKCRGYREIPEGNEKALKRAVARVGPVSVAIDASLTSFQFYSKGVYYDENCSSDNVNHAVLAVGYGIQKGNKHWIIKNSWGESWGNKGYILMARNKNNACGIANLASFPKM
Assay: Measurement of cathepsin K inhibitory activity (fluorescent substrate Z-Gly-Pro-Arg-MCA)
pIC50: −log10 of the molar value.
metric name: pIC50

>  <mol>
CC(C)[C@H](NC(=O)C1(NC(=O)OC2CCOCC2)CCCCC1)C(=O)C(=O)N[C@H]1CCCCNC1=O

>  <system under test>
Cathepsin K (Oryctolagus cuniculus, UniProt P43236)

>  <metric name>
pIC50

>  <reported value>
9.25

$$$$
>  <mol>
COC(=O)N1CCC(OC(=O)NC2(C(=O)N[C@H](C(=O)C(=O)N[C@H]3CCCCNC3=O)C(C)C)CCCCC2)CC1

>  <system under test>
Cathepsin K (Oryctolagus cuniculus, UniProt P43236)

>  <metric name>
pIC50

>  <reported value>
9.28

$$$$
